target: human ether-à-go-go-related gene (hERG) potassium channel (human); experiment: primary screen, population patch clamp on CHO cells stably expressing hERG; higher = less effect of the substance;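 further: peak tail current of the secondary pulse compared with the same well before compound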
Sequence (Q12809 whole entry, looked up): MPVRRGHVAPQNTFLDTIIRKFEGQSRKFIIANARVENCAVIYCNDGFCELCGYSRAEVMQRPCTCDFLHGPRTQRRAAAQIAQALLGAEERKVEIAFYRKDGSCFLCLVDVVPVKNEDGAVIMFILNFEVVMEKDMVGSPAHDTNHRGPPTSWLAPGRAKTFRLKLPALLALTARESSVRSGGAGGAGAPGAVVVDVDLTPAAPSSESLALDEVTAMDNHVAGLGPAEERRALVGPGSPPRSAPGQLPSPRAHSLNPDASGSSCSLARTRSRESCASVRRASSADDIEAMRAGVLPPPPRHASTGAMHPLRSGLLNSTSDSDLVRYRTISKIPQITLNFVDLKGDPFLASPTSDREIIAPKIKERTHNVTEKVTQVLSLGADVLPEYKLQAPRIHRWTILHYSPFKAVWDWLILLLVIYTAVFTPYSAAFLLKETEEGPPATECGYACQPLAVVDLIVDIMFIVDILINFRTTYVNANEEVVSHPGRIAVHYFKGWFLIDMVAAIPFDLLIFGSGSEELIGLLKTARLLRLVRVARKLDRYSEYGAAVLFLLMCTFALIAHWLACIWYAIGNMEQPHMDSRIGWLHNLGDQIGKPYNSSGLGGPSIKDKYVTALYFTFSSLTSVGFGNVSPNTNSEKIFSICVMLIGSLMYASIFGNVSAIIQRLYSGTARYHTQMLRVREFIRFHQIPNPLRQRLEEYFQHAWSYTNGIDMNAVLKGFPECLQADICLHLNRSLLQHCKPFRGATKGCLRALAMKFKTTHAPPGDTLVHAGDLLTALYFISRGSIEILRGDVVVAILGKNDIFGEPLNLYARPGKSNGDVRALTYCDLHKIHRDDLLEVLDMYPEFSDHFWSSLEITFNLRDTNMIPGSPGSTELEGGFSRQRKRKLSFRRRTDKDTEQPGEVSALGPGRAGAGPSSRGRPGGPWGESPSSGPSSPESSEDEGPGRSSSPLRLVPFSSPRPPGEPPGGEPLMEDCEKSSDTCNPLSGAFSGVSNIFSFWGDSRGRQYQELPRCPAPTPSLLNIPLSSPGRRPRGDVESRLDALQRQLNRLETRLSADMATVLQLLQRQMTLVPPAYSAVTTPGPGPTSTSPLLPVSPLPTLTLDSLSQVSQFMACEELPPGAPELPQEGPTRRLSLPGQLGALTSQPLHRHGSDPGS
Hit rate of the full screen: of about 310,000 compounds, about 14,000 (4.5%) showed an effect of 50% or more. Effects have a minus sign here. The full list was thinned out, with strong results kept by preference.
Output satisfied for hERG current change (%, negative = inhibition) at 10uM not less than -10%; output not satisfied otherwise.

// query Exam item: decide whether the reported hERG current change (%, negative = inhibition) at 10uM for Cc1cccc(NC(=O)CSCC(=O)N(C)CC(=O)Nc2cccc(F)c2)c1 is at least -10%.
// result satisfied

// query Exam item: decide whether the reported hERG current change (%, negative = inhibition) at 10uM for COc1ccc2oc(=O)c(/C(C)=N/Nc3ccccc3)cc2c1 is at least -10%.
// result satisfied

// query Exam item: decide whether the reported hERG current change (%, negative = inhibition) at 10uM for COc1ccc(-n2cc(CN[C@H]3CCCCNC3=O)c(-c3cccc(F)c3)n2)cc1 is at least -10%.
// result not satisfied

// query Exam item: decide whether the reported hERG current change (%, negative = inhibition) at 10uM for OC(CNC1Cc2ccccc2C1)COc1ccc(Cl)cc1 (stereo not drawn) is at least -10%.
// result not satisfied

// query Exam item: decide whether the reported hERG current change (%, negative = inhibition) at 10uM for COc1ccc(-n2cc(CNCc3cnc4ccccn34)c(-c3cccc(F)c3)n2)cc1 is at least -10%.
// result not satisfied

// query Exam item: decide whether the reported hERG current change (%, negative = inhibition) at 10uM for S=C(Nc1ccccc1Cl)N(CCN1CCCCC1)Cc1ccco1 is at least -10%.
// result not satisfied

// query Exam item: decide whether the reported hERG current change (%, negative = inhibition) at 10uM for Cl.O=[N+]([O-])c1ccc(OCC(O)CNC2CCCC2)cc1 (stereo not drawn) is at least -10%.
// result not satisfied

// query Exam item: decide whether the reported hERG current change (%, negative = inhibition) at 10uM for CC(C)C[C@H]1CN=C(Nc2ccccc2)N1CCCC1CCCC1 is at least -10%.
// result not satisfied

// query Exam item: decide whether the reported hERG current change (%, negative = inhibition) at 10uM for COC(=O)c1ccc(N2CCOCC2)c(F)c1 is at least -10%.
// result satisfied

// query Exam item: decide whether the reported hERG current change (%, negative = inhibition) at 10uM for Cn1cc(C(c2ccccn2)c2cn(C)c3ccccc23)c2ccccc21 is at least -10%.
// result satisfied

// query Exam item: decide whether the reported hERG current change (%, negative = inhibition) at 10uM for CN(Cc1nc(-c2ccccc2)no1)C(=O)c1ccc2c(c1)OCO2 is at least -10%.
// result not satisfied

// query Exam item: decide whether the reported hERG current change (%, negative = inhibition) at 10uM for CCOC(=O)C1CCCN(C(=O)c2cnn3c(C(F)F)cc(-c4ccc(C)cc4)nc23)C1 (stereo not drawn) is at least -10%.
// result not satisfied

// query Exam item: decide whether the reported hERG current change (%, negative = inhibition) at 10uM for O=C(/C=C/c1ccc([N+](=O)[O-])cc1)NCCc1ccc(F)cc1 is at least -10%.
// result not satisfied

// query Exam item: decide whether the reported hERG current change (%, negative = inhibition) at 10uM for Cl.OC(CNCC1COc2ccccc2O1)COc1ccc(Cl)cc1 (stereo not drawn) is at least -10%.
// result not satisfied

// query Exam item: decide whether the reported hERG current change (%, negative = inhibition) at 10uM for Cl.OC(CNC1CCCC1)COc1ccc(-c2ccccc2)cc1 (stereo not drawn) is at least -10%.
// result not satisfied

// query Exam item: decide whether the reported hERG current change (%, negative = inhibition) at 10uM for COc1ccc(OCC(O)CNC2CCCC2)cc1.Cl (stereo not drawn) is at least -10%.
// result satisfied

// query Exam item: decide whether the reported hERG current change (%, negative = inhibition) at 10uM for CC(C)C[C@H]1CN=C(Nc2ccccc2)N1CCC1CCCC1 is at least -10%.
// result not satisfied

// query Exam item: decide whether the reported hERG current change (%, negative = inhibition) at 10uM for N/C(=N\OC(=O)c1cccnc1)c1ccc(Cl)cc1Cl is at least -10%.
// result satisfied

// query Exam item: decide whether the reported hERG current change (%, negative = inhibition) at 10uM for COc1ccc(N2C(=O)CC(NC3CCCCNC3=O)C2=O)cc1 (stereo not drawn) is at least -10%.
// result satisfied

// query Exam item: decide whether the reported hERG current change (%, negative = inhibition) at 10uM for NS(=O)(=O)c1ccc(CCNC(=O)/C=C/c2cccc([N+](=O)[O-])c2)cc1 is at least -10%.
// result not satisfied

// query Exam item: decide whether the reported hERG current change (%, negative = inhibition) at 10uM for O=C(/C=C/c1ccc([N+](=O)[O-])cc1)NCCSCc1ccco1 is at least -10%.
// result not satisfied

// query Exam item: decide whether the reported hERG current change (%, negative = inhibition) at 10uM for CC(NC(=O)c1ccccc1[N+](=O)[O-])C1CC2CCC1C2 (stereo not drawn) is at least -10%.
// result satisfied

// query Exam item: decide whether the reported hERG current change (%, negative = inhibition) at 10uM for CCC1CCCCN1C(=O)c1ccc2c(c1)C(=O)N(c1ccc(C)cc1)C2=O (stereo not drawn) is at least -10%.
// result satisfied

// query Exam item: decide whether the reported hERG current change (%, negative = inhibition) at 10uM for CC(C)C[C@H]1CN=C(Nc2ccccc2)N1CCC1CCCCC1 is at least -10%.
// result not satisfied

// query Exam item: decide whether the reported hERG current change (%, negative = inhibition) at 10uM for COc1ccc(-c2nnc3sc(-c4ccco4)nn23)cc1OC is at least -10%.
// result satisfied

// query Exam item: decide whether the reported hERG current change (%, negative = inhibition) at 10uM for OC(CNCC1COc2ccccc2O1)COc1ccccc1F (stereo not drawn) is at least -10%.
// result satisfied

// query Exam item: decide whether the reported hERG current change (%, negative = inhibition) at 10uM for Cl.OC(CNC1CCCC1)COc1ccc(F)cc1 (stereo not drawn) is at least -10%.
// result satisfied

// query Exam item: decide whether the reported hERG current change (%, negative = inhibition) at 10uM for Cc1ccc(S(=O)(=O)NCc2c(-c3ccccc3)c3cc(Cl)ccc3[nH]c2=O)cc1 is at least -10%.
// result satisfied

// query Exam item: decide whether the reported hERG current change (%, negative = inhibition) at 10uM for O=C(c1ccc(Cl)cc1)C(CN1CCCC1)c1ccccc1 (stereo not drawn) is at least -10%.
// result not satisfied

// query Exam item: decide whether the reported hERG current change (%, negative = inhibition) at 10uM for COc1ccc(/C=C/C(=O)NCCOc2ccc(C)cc2)cc1 is at least -10%.
// result satisfied

// query Exam item: decide whether the reported hERG current change (%, negative = inhibition) at 10uM for O=C(/C=C/c1ccc([N+](=O)[O-])cc1)NCc1ccco1 is at least -10%.
// result not satisfied

// query Exam item: decide whether the reported hERG current change (%, negative = inhibition) at 10uM for CN(C(=O)Nc1ccccc1)C1CCCCC1 is at least -10%.
// result satisfied

// query Exam item: decide whether the reported hERG current change (%, negative = inhibition) at 10uM for O=C(/C=C/c1cccc([N+](=O)[O-])c1)NCCSCc1ccco1 is at least -10%.
// result not satisfied

// query Exam item: decide whether the reported hERG current change (%, negative = inhibition) at 10uM for Cc1cccc(N(C(=O)CNC(=O)c2ccco2)C(C(=O)NCC2CCCO2)c2ccccc2)c1 (stereo not drawn) is at least -10%.
// result satisfied

// query Exam item: decide whether the reported hERG current change (%, negative = inhibition) at 10uM for COc1ccc(-n2cc(CNC3CCOCC3)c(-c3cccc(F)c3)n2)cc1 is at least -10%.
// result not satisfied

// query Exam item: decide whether the reported hERG current change (%, negative = inhibition) at 10uM for COCCNC(=O)C(=O)NCC1OCCN1S(=O)(=O)c1ccc(C)cc1 (stereo not drawn) is at least -10%.
// result satisfied

// query Exam item: decide whether the reported hERG current change (%, negative = inhibition) at 10uM for CCCc1cc2c(cc1NC(=O)c1ccccc1F)OCO2 is at least -10%.
// result not satisfied

// query Exam item: decide whether the reported hERG current change (%, negative = inhibition) at 10uM for CN(C)C(=O)N1CCCC(C(=O)NCc2cccs2)C1 (stereo not drawn) is at least -10%.
// result satisfied

// query Exam item: decide whether the reported hERG current change (%, negative = inhibition) at 10uM for O=C(/C=C/c1ccc([N+](=O)[O-])cc1)NCCc1ccccc1 is at least -10%.
// result not satisfied

// query Exam item: decide whether the reported hERG current change (%, negative = inhibition) at 10uM for COc1ccc(-n2cc(CNCC3CCOCC3)c(-c3cccc(F)c3)n2)cc1 is at least -10%.
// result not satisfied

// query Exam item: decide whether the reported hERG current change (%, negative = inhibition) at 10uM for O=C(O)c1ccccc1C(=O)NCC(O)COc1ccc(Cl)cc1 (stereo not drawn) is at least -10%.
// result satisfied

// query Exam item: decide whether the reported hERG current change (%, negative = inhibition) at 10uM for Cc1ccccc1NC(=S)N(CCN1CCCCCC1)Cc1cccs1 is at least -10%.
// result not satisfied
